- assayed_target: CYP1A1 (Homo sapiens)
- Sequence (P04798 whole entry): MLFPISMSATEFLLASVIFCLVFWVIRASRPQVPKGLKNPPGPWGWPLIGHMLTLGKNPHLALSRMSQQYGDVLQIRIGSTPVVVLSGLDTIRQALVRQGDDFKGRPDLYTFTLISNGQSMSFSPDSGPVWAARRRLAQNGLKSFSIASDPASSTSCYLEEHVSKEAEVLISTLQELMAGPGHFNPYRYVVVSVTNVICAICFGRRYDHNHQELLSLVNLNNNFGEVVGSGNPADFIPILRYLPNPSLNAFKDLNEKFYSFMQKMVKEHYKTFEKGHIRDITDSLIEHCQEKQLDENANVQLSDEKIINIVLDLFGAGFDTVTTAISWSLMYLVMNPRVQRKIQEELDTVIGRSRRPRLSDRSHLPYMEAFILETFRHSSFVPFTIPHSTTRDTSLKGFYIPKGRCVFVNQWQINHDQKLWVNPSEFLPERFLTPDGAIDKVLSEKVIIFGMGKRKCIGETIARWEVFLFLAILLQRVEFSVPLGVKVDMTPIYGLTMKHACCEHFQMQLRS
- experiment_description: 7-Ethoxyresorufin O-deethylation
- Format: biochemical

molecule	display_unit	IC50
CCC#Cc1ccc2ccc3cccc4ccc1c2c34 [Compound 1-EEP, 1-(1-butynyl)pyrene]	nM	720
CC#Cc1cc2ccccc2c2ccccc12 [Compound 9-MEPhen, 9-(1-propynyl)phenanthrene]	nM	2630
C#Cc1ccc2ccc3ccccc3c2c1 [Compound 3-Ephen, 3-ethynylphenanthrene]	nM	1030
CC#Cc1cc2cccc3ccc4cccc1c4c32 [Compound 4-MEP, 4-(1-propynyl)pyrene]	nM	370
C#Cc1ccc2c(ccc3ccccc32)c1 [Compound 2-Ephen, 2-ethynylphenanthrene]	nM	610
C#Cc1cc2ccccc2c2ccccc12 [Compound 9-Ephen, 9-ethynylphenanthrene]	nM	620
CC#Cc1ccc2ccc3cccc4ccc1c2c34 [Compound 1-MEP, 1-(1-propynyl)pyrene]	nM	20
CC#Cc1ccc2c(ccc3ccccc32)c1 [Compound 2-MEPhen, 2-(1-propynyl)phenanthrene]	nM	160
C#Cc1ccc2ccc3cccc4ccc1c2c34 [Compound 1-EP, 1-ethynylpyrene]	nM	180
